kon by entry:
Biological target: T1, cTnI quality control product recombinant protein (human, UniProt P19429 1-210, limits assumed)
T1 construct: the assay paragraphs only say cTnI; also called cardiac troponin I; cTnI antigen
T1 sequence (P19429 whole entry): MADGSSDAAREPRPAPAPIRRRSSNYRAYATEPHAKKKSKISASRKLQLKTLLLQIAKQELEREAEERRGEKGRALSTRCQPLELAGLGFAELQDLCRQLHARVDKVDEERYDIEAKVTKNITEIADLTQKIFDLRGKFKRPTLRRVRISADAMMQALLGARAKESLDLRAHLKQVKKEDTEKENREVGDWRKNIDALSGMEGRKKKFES
Experiment: AMC biosensor, antibody on sensor

binder	kon, M⁻¹ s⁻¹
Mutation 1-48 (antibody, V domains shown) VH: QVQLQQSGTELAKPGASVKFSCKASGYTFSSYWMYWIKQRPGQGLEWIGYLNPSTGHTDYNQRFKDKATLTADKSSSTAYMQLNSLTSEDSAVYYCARRYWGPFGMDYWGQGTSVTVSS VL: EIFLTQSPAIMSASPGEKVTMTCSASSTVSYVHWYQQKSGTSPKRWIYDTSKIASGIPVRFSGSGSGTSYSLTISSMEAEDAATYYCQQWSTNPYTFGGGTKLEIKR	13000
Mutation 1-47 (antibody, V domains shown) VH: QVQLQQSGTELAKPGASVKFSCKASGYTFTTYWMYWIKQRPGQGLEWIGYLNPSTGHTDYNQKFKDKATLTADKSSSTAYMQLNSLTSEDSAVYYCARRYYGPFGMDYWGQGTSVTVSS VL: EIFLTQSPAIMSASPGEKVTMTCSASTTVSYVHWYQQKSGTSPKRWLYDTSKIASGIPVRFSGSGSGTSYSLTISSMEAEDAATYYCQQWSTQPYTFGGGTKLEIKR	34100
Mutation 1-41 (antibody, V domains shown) VH: QVQLQQSGTELAKPGASVKFSCKASGYTFSSYWMYWIKQRPGQGLEWIGYINPSTGHTDYNQRFKDKATLTADKSSSTAYMQLNSLTSEDSAVYYCARRYYGPFGMDYWGQGTSVTVSS VL: EIFLTQSPAIMSASPGEKVTMTCSASTSVSYVHWYQQKSGTSPKRWIYDTSKIASGIPVRFSGSGSGTSYSLTISSMEAEDAATYYCQQWSSQPYTFGGGTKLEIKR	18500
Mutation 1-5 (antibody, V domains shown) VH: QVQLQQSGTELAKPGASVKFSCKASGYTFSSYWMYWIKQRPGQGLEWIGYLNPSTGHTDYNQKFKDKATLTADKSSSTAYMQLNSLTSEDSAVYYCARKYWGPFGMDYWGQGTSVTVSS VL: EIFLTQSPAIMSASPGEKVTMTCSASSSVSYVHWYQQKSGTSPKRWIYDTSKIASGIPVRFSGSGSGTSYSLTISSMEAEDAATYYCQQWSTNPYTFGGGTKLEIKR	49300
WT 1-7 (antibody, V domains shown) VH: QVQLQQSGTELAKPGASVKFSCKASDYTFTTYWMYWIKQRPGQGLEWIGYLNPSTGHTEYNQKFKDKATLTADKSSSTAYMQLNSLTSEDSAVYYCARRYYGPFAMDYWGQGTSVTVSS VL: EIFLTQSPAIMSASPGEKVTMTCSASTSVSYAHWYQQKSGTSPKRWIYDSSKLASGIPVRFSGSGSGTSYSLTISSMEAEDAATYYCQNWSTNPYTFGGGTKLEIKR	27800
Mutation 1-50 (antibody, V domains shown) VH: QVQLQQSGTELAKPGASVKFSCKASGYTFTSYWMYWIKQRPGQGLEWIGYLNPSTGHTDYNQKFKDKATLTADKSSSTAYMQLNSLTSEDSAVYYCARRYWGPFGMDYWGQGTSVTVSS VL: EIFLTQSPAIMSASPGEKVTMTCSASTTVSYVHWYQQKSGTSPKRWIYDTSKLASGIPVRFSGSGSGTSYSLTISSMEAEDAATYYCQQWSSNPYTFGGGTKLEIKR	10200
Mutation 1-51 (antibody, V domains shown) VH: QVQLQQSGTELAKPGASVKFSCKASGYTFTTYWMYWIKQRPGQGLEWIGYINPSTGHTDYNQRFKDKATLTADKSSSTAYMQLNSLTSEDSAVYYCARRYYGPFGMDYWGQGTSVTVSS VL: EIFLTQSPAIMSASPGEKVTMTCSASTSVSYVHWYQQKSGTSPKRWIYDTSKIASGIPVRFSGSGSGTSYSLTISSMEAEDAATYYCQQWSSQPYTFGGGTKLEIKR	26500
Mutation 1-3 (antibody, V domains shown) VH: QVQLQQSGTELAKPGASVKFSCKASGYTFTTYWMYWIKQRPGQGLEWIGYINPSTGHTDYNQKFKDKATLTADKSSSTAYMQLNSLTSEDSAVYYCARKYFGPFGMDYWGQGTSVTVSS VL: EIFLTQSPAIMSASPGEKVTMTCSASTSVSYVHWYQQKSGTSPKRWIYDTSKLASGIPVRFSGSGSGTSYSLTISSMEAEDAATYYCQQWSSNPYTFGGGTKLEIKR	19200
Mutation 1-49 (antibody, V domains shown) VH: QVQLQQSGTELAKPGASVKFSCKASGYTFTTYWMYWIKQRPGQGLEWIGYLNPSSGHTDYNQKFKDKATLTADKSSSTAYMQLNSLTSEDSAVYYCARKYFGPFGMDYWGQGTSVTVSS VL: EIFLTQSPAIMSASPGEKVTMTCSASTSVSYVHWYQQKSGTSPKRWLYDTSKLASGIPVRFSGSGSGTSYSLTISSMEAEDAATYYCQQWSSQPYTFGGGTKLEIKR	32800
Mutation 1-15 (antibody, V domains shown, CDR-VL3 cell prints 'TQ', read as T/Q) VH: QVQLQQSGTELAKPGASVKFSCKASGYTFTTYWMYWIKQRPGQGLEWIGYLNPSSGHTDYNQRFKDKATLTADKSSSTAYMQLNSLTSEDSAVYYCARKYFGPFGMDYWGQGTSVTVSS VL: EIFLTQSPAIMSASPGEKVTMTCSASTSVSYVHWYQQKSGTSPKRWIYDTSKLASGIPVRFSGSGSGTSYSLTISSMEAEDAATYYCQQWSTQPYTFGGGTKLEIKR	18100
